For each of the compounds below, state its pEC50.
# assayed_system: Regulator of G-protein signaling 16 (Homo sapiens, UniProt O15492)
# Sequence (O15492 whole entry): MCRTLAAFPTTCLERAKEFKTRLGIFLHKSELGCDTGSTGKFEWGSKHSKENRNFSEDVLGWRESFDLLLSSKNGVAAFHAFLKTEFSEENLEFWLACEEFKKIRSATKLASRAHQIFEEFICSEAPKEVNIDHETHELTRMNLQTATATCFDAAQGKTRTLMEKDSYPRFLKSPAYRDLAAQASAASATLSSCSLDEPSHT
# run_description: small molecules altering RGS16 interaction with Galphao – biochemical, multiplexed bead flow cytometry, SAR compounds, SAR follow-up (AID 2298)
Answers are plain numbers, as −log10 of the molar value.

The following compounds have reported results that may help.
compound | pEC50
COc1ccc(C2=CC(=O)C=CC2=O)cc1 | 6.82
Cc1cccc(N2CCN(C(=O)Cn3sc4nc(C)cc(C)c4c3=O)CC2C)c1 (stereo not given) | 6.96
CN=c1scc(C)n1N=Cc1ccc(O)c(O)c1O | 6.29
O=C1C(Cl)=C(N2CCCCC2)C(=O)C(Cl)=C1c1cnc(N2CCCCC2)s1 | 6.92

Continue with the next compound.
// Cc1cccc(N2CCN(C(=O)COc3nsc4nc(C)cc(C)c34)CC2C)c1 (stereo not given) : pEC50 value = 5.85
